Assayed Target: UniProt Q14790
Sequence (Q14790 217-374 limits assumed, species assumed): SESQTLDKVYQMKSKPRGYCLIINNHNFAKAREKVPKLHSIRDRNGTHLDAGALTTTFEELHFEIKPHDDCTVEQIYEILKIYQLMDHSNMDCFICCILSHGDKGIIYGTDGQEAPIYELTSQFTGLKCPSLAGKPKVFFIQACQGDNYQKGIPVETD
Sequence (Q14790 385-479 limits assumed, species assumed): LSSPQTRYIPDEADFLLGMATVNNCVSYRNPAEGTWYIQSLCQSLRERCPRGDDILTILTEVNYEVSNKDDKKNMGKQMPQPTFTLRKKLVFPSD
Protocol Details: Fluorescence enzyme assay, IC50 determination, Mch5
Format: biochemical
Measurement Context: Ac-DEVD-AMC substrate, 30 min preincubation, room temperature; read-out: MCH-5 IC50
Property Label: IC50 (nM)

| Molecule | IC50 (nM) |
| --- | --- |
| CC(C)C[C@H](NC(=O)[C@H](CCC(=O)O)Oc1cccc2ccccc12)C(=O)N[C@H](C=O)CC(=O)O | 12 |
| CC(C)C[C@H](NC(=O)COc1cccc2c1OC(C)(C)C2)C(=O)N[C@H](C=O)CC(=O)O | 6340 |
| CC(C)[C@H](NC(=O)COc1cccc2ccccc12)C(=O)N[C@H](C=O)CC(=O)O | 1200 |
| CC(C)[C@H](NC(=O)COc1cccc2c(NS(=O)(=O)C(F)(F)F)cccc12)C(=O)N[C@H](C=O)CC(=O)O | 615 |
| CC(C)[C@H](NC(=O)COc1ccc2ccccc2c1C(=O)O)C(=O)N[C@H](C=O)CC(=O)O | 733 |

A: CC(C)C[C@H](NC(=O)C(C)Nc1cccc2ccccc12)C(=O)N[C@H](C=O)CC(=O)O (mixture of isomers)
B: CC(C)[C@H](NC(=O)COc1cc2ccccc2cc1C(=O)O)C(=O)N[C@H](C=O)CC(=O)O
Which numeric IC50 is bigger, that of A or that of B ? Lab note: record the label of whichever item you select.
B
